Read-out: Cyclin D1 (CCND1), CCND1 (gene 595)
Assay: LTEA_HepaRG_CCND1: Life Technologies and Expression Analysis (LTEA) Assay for Cyclin D1 (CCND1) using HepaRG (AID 2283451)
Conditions: mRNA level, 48 h; actives raise or lower the signal
Calls of active or inactive are those of the source. How the source made its calls: active means hit-call score of the fitted dose curve at least 0.9, where 1 is the maximum; inactive means score below 0.9.
Respond with a class label; see TRUE for active, FALSE for inactive

The examples below pair each entry with its known result.
[
  {
    "line.notation": "CCCCCCCCCCCCN1CCCC1=O",
    "assigned.label": "FALSE"
  },
  {
    "line.notation": "CC1=C(/C=C/C(C)=C/C=C/C(C)=C/C(=O)O)C(C)(C)CCC1",
    "assigned.label": "FALSE"
  }
]

Query: Hi, sorry to bother you, what did the test record for Oc1cccc(O)c1 ?
Result: FALSE

Query: Short answer needed: outcome of this test for CN(C)C=O ?
Result: FALSE

Query: Called result for OC1CCCCC1
Result: FALSE

Query: What call does the record list for CC(C)(C)c1cc(C(C)(C)C)c(O)c(C(C)(C)C)c1 ?
Result: FALSE

Query: // param item: NC(=O)N(O)[C@@H]1C=C[C@H](Oc2cccc(Oc3ccc(F)cc3)c2)C1 ; yields the recorded call
Result: TRUE

Query: Look up the recorded call for c1ccc2c(c1)Cc1ccccc1-2 in this test.
Result: FALSE

Query: How was C[C@@H]1C[C@H]2[C@@H]3CCC4=CC(=O)C=C[C@]4(C)[C@@]3(F)[C@@H](O)C[C@]2(C)[C@@]1(O)C(=O)COP(=O)(O)O classified in this test?
Result: FALSE

Query: Assay outcome for CC[C@H](c1ccc(O)cc1)[C@@H](CC)c1ccc(O)cc1 : what was it?
Result: TRUE

Query: Answer briefly: the call reported for Nc1cccc2c(N)cccc12 in this assay.
Result: FALSE

Query: Returns: the outcome recorded for CCCCCCCCOC(=O)CCCCCCCCC(=O)OCCCCCCCC in this assay.
Result: FALSE
